- target.under.test: Tubulin (Bos taurus, UniProt Q6B856+Q862L2+Q862F3)
- protocol.summary: Inhibitory activity against tubulin polymerization.
- Assay type: functional
parameter.measured: IC50 (µM)

# compound, output.unit, IC50
records = [
    ("COc1ccc(S(=O)(=O)Nc2cccnc2Nc2ccc(O)cc2)cc1 [ABT-751]", "µM", 2.2),
]

(A) COc1ccc(S(=O)(=O)Nc2cccc3cc(Cl)[nH]c23)cc1
(B) COc1ccc(S(=O)(=O)Nc2cccc3c(Cl)c[nH]c23)cc1
[in] Of the pair A and B , name the member with the lesser recorded IC50. Refer to your chosen item by its label in the answer.
[out] A
